- Test Target: Mas-related G-protein coupled receptor member X1 (Homo sapiens)
- Test Details: positive allosteric modulators of MrgX1, primary screen, HEK293 cells, Fluo-4 calcium flux (AID 588675);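 also: compound read alongside a low EC10 to EC30 dose of BAM8-22 agonist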
- Test Settings: MrgX1-HEK293, Fluo-4 calcium flux, FDSS, at 10 µM
The campaign covered roughly 310,000 compounds. About 1,900 (0.61%) were called active.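 The calls were made as follows: active = plate-corrected calcium response at least 3 library SD above typical, normal starting fluorescence, not activating the receptor alone; inactive = the rest.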 For the sample, actives were picked, then their nearest neighbours and some compounds at random.
Form entry, call: pick from class 1 for active, class 0 for inactive

Q. Record lookup: outcome of this test for CC(Oc1ccc2ccccc2c1)C(=O)NNC(=S)NC(=O)c1ccco1 (stereo not given) ?
A. class 0

Q. // outcome(item) with item = "CN1/C(=C\C(=O)c2oc3ccccc3c2N)C(C)(C)c2ccccc21"
A. class 0

Q. Assay result, entry "Cc1ccc(NC(=O)Nc2ccc3oc(C)nc3c2)cc1" — outcome?
A. class 0

Q. What was the test verdict on "CC(=O)NS(=O)(=O)c1ccc(N/C(N)=N/c2nc(C)cc(C)n2)cc1" ?
A. class 0

Q. How did this test come out for COc1ccc(N2C(=O)C(Cc3ccccc3)NC2=S)cc1 (stereo not given) ?
A. class 0

Q. State the result this test recorded for "C#CCOCCOCCOCCNc1nc(N2CCN(C(=O)CCCCCCCCCCNC(=O)[C@H](CCCCN)n3cc(C)nn3)CC2)nc(N2CCN(C(=O)CCCCCCCCCCNC(=O)[C@H](CO)n3cc(CCCSC)nn3)CC2)n1" .
A. class 0

Q. Outcome logged for "CC(C)Nc1nnc(SCC(=O)/C=C2\N(C)c3ccccc3C2(C)C)s1" in this assay:
A. class 0

Q. Tell me the recorded outcome of this test for "CN1CCN(CCC(=O)N/N=C/C=C2\N(C)c3ccccc3C2(C)C)CC1" .
A. class 0

Q. Please state the recorded outcome for this compound: "Cc1ccc([C@@H]2CC=C(C(=O)O)[C@H](c3cccc(Cl)c3)N2S(=O)(=O)c2ccc(C)cc2)cc1"
A. class 0

Q. GET /call?item= "Cc1cc2ncn(CCCCOc3ccccc3)c2cc1C" returns the recorded outcome of this test.
A. class 1

Q. Dear colleague, could you share the recorded outcome for Cc1cc(C)c(NC(=O)CN2C(=O)NC(Cc3ccccc3)C2=O)c(C)c1 (stereo not given) when you have a moment?
A. class 0

Q. Hi, sorry to bother you, what did the test record for "CC(C)=CCC/C(C)=C/C(=O)O" ?
A. class 0

Q. Please state the recorded outcome for this compound: "Cn1nc(C(F)(F)F)c(-c2ccc(F)cc2)c1NC(=O)CSCC(=O)O"
A. class 0

Q. // param item: CC1CN(S(=O)(=O)c2cccc(C(F)(F)F)c2)CN1C(=O)N1CCOCC1 (stereo not given) ; yields the recorded call
A. class 0

Q. Hey, what did the test say about "COc1cc(C(=O)NCc2cc3cc(Cl)ccc3n2C)cc(OC)c1OC" ?
A. class 0

Q. I'd appreciate the recorded outcome for "Cc1nn2cc(-c3ccc(Cl)cc3)cnc2c1Br" from this test.
A. class 0

Q. Query: recorded result category for "CCn1cc(C(=O)NC2CCCCCC2)c(=O)c2cc(S(=O)(=O)N3CCCCC3)ccc21" in this test
A. class 0

Q. Dear colleague, could you share the recorded outcome for "CCOc1cccc(NC(=O)CC#N)c1" when you have a moment?
A. class 0

Q. # fetch the recorded call for "Cc1ccc(S(=O)(=O)N2[C@@H](c3ccccc3F)C(C(=O)O)=CC[C@H]2c2ccc(Cl)cc2)cc1" here
A. class 1

Q. Returns: the outcome recorded for C#CCOCCOCCOCCNc1nc(N2CCN(C(=O)[C@H](CCCCN)n3cc(CCC(=O)O)nn3)CC2)nc(N2CCN(C(=O)[C@H](CCCCN)n3cc(CC(C)O)nn3)CC2)n1 (stereo not given in full) in this assay.
A. class 0
